# System: Staphylococcus sp.
# ASSAY_COMMENT: In vitro antibacterial evaluation: minimum inhibitory concentration (MIC), broth dilution method
# Assay type: cell-based
# CONDITION: Staphylococcus aureus (GC 3053); 18 hours at 35° C.
REPORTED_METRIC: MIC Staphylococcus aureus (GC 3053)

Prompt: # lookup: MIC Staphylococcus aureus (GC 3053) of CC(c1ccccc1)C1NC(=O)CNC(=O)C(CO)NC(=O)C(C(O)C2CNC(=N)N2C2OC(CO)C(O)C(O)C2O)NC(=O)C(C(O)C2CNC(=N)N2)NC(=O)C(Cc2ccc(OC3OC(CO)C(OC4OC(CO)C(O)C(OCc5ccc(OCc6ccccc6)cc5)C4O)C(O)C3O)cc2)NC1=O (centres unmarked) [Example 231c]
Completion: 2 µg/mL

Prompt: Item CC(c1ccccc1)C1NC(=O)CNC(=O)C(CO)NC(=O)C(C(O)C2CNC(=N)N2C2OC(CO)C(O)C(O)C2O)NC(=O)C(C(O)C2CNC(=N)N2)NC(=O)C(Cc2ccc(OC3OC(CO)C(OC4OC(COCc5ccc(Oc6ccccc6)cc5)C(O)C(O)C4O)C(O)C3O)cc2)NC1=O (centres unmarked) [Example 236] has what recorded MIC Staphylococcus aureus (GC 3053)?
Completion: 2 µg/mL

Prompt: // returns reported MIC Staphylococcus aureus (GC 3053) for input CCCOc1ccc(COCC2OC(OC3C(CO)OC(Oc4ccc(CC5NC(=O)C(C(C)c6ccccc6)NC(=O)CNC(=O)C(CO)NC(=O)C(C(O)C6CNC(=N)N6C6OC(CO)C(O)C(O)C6O)NC(=O)C(C(O)C6CNC(=N)N6)NC5=O)cc4)C(O)C3O)C(O)C(O)C2O)cc1 (centres unmarked) [Example 235]
Completion: 1 to 2 µg/mL

Prompt: Item under review: CC(c1ccccc1)C1NC(=O)CNC(=O)C(CO[Si](C)(C)C(C)(C)C)NC(=O)C(C(O)C2CNC(=N)N2C2OC3COC(C)(C)OC3C3OC(C)(C)OC32)NC(=O)C(C(O)C2CNC(=N)N2)NC(=O)C(Cc2ccc(O)cc2)NC1=O (centres unmarked) [Example 248] . Reported MIC Staphylococcus aureus (GC 3053)?
Completion: 64 µg/mL

Prompt: Would you kindly share the measured MIC Staphylococcus aureus (GC 3053) for COc1ccc(COC2C(CO)OC(OC3C(CO)OC(Oc4ccc(CC5NC(=O)C(C(C)c6ccccc6)NC(=O)CNC(=O)C(CO)NC(=O)C(C(O)C6CNC(=N)N6C6OC(CO)C(O)C(O)C6O)NC(=O)C(C(O)C6CNC(=N)N6)NC5=O)cc4)C(O)C3O)C(O)C2O)cc1OCc1ccccc1 (centres unmarked) [Example 239a] ?
Completion: 4 µg/mL

Prompt: Which MIC Staphylococcus aureus (GC 3053) reading was recorded for the compound COc1ccc(COCC2OC(OC3C(CO)OC(Oc4ccc(CC5NC(=O)C(C(C)c6ccccc6)NC(=O)CNC(=O)C(CO)NC(=O)C(C(O)C6CNC(=N)N6C6OC(CO)C(O)C(O)C6O)NC(=O)C(C(O)C6CNC(=N)N6)NC5=O)cc4)C(O)C3O)C(O)C(O)C2O)cc1 (centres unmarked) [Example 232] ?
Completion: 8 µg/mL

Prompt: So what's the measured MIC Staphylococcus aureus (GC 3053) for this one? CC(c1ccccc1)C1NC(=O)CNC(=O)C(CO)NC(=O)C(C(O)C2CNC(=N)N2C2OC(CO)C(O)C(O)C2O)NC(=O)C(C(O)C2CNC(=N)N2)NC(=O)C(Cc2ccc(OC3OC(CO)C(OC4OC(CO)C(OCc5ccc(OCc6ccccc6)cc5)C(O)C4O)C(O)C3O)cc2)NC1=O (centres unmarked) [Example 231a]
Completion: 1 to 2 µg/mL

Prompt: Quick one: MIC Staphylococcus aureus (GC 3053) of CC(c1ccccc1)C1NC(=O)CNC(=O)C(CO)NC(=O)C(C(O)C2CNC(=N)N2C2OC(CO)C(O)C(O)C2O)NC(=O)C(C(O)C2CNC(=N)N2)NC(=O)C(Cc2ccc(OC3OC(CO)C(OC4OC(COCc5ccc(OCc6ccccc6)cc5)C(O)C(O)C4O)C(O)C3O)cc2)NC1=O (centres unmarked) [Example 231] ?
Completion: 1 to 2 µg/mL

Prompt: Look up MIC Staphylococcus aureus (GC 3053): CC(C)CC(=O)OC1C(OC2C(CO)OC(Oc3ccc(CC4NC(=O)C(C(C)c5ccccc5)NC(=O)CNC(=O)C(CO)NC(=O)C(CC5CNC(=N)N5C5OC(CO)C(O)C(O)C5O)NC(=O)C(CC5CNC(=N)N5)NC4=O)cc3)C(O)C2O)OC(CO)C(O)C1O (centres unmarked) [Example 277b]
Completion: >64 µg/mL

Prompt: Fill blank: measured MIC Staphylococcus aureus (GC 3053) of the compound CC(c1ccccc1)C1NC(=O)CNC(=O)C(CO)NC(=O)C(C(O)C2CNC(=N)N2C2OC(CO)C(O)C(O)C2O)NC(=O)C(C(O)C2CNC(=N)N2)NC(=O)C(Cc2ccc(OC3OC(CO)C(OC4OC(COCC=C(c5ccccc5)c5ccccc5)C(O)C(O)C4O)C(O)C3O)cc2)NC1=O (centres unmarked) [Example 241] is ____.
Completion: 2 µg/mL

Prompt: Any idea what MIC Staphylococcus aureus (GC 3053) was measured for CCC(C)C(=O)OC1C(CO)OC(OC2C(CO)OC(Oc3ccc(CC4NC(=O)C(C(C)c5ccccc5)NC(=O)CNC(=O)C(CO)NC(=O)C(C(O)C5CNC(=N)N5C5OC(CO)C(O)C(O)C5O)NC(=O)C(C(O)C5CNC(=N)N5)NC4=O)cc3)C(O)C2O)C(O)C1O (centres unmarked) [Example 278c] ?
Completion: 8 µg/mL
